Reported GI50 values for a set of compounds
System: MOLT-4 leukemia
Experiment: NCI tumour cell line growth inhibition, 48 h
reported metric: GI50

compound | reported metric | result
O=c1c2ccccc2c(=O)n2n1-c1cccc(c1)CSSCc1cccc-2c1 | GI50 | > 100 µM
CN(C)CCN1C(=O)c2cccc3cc(N)cc(c23)C1=O | GI50 | 1.88 µM
CCN(CC)CCN1C(=O)C2C3C(C)=CC(OC(C)=O)(CC3C)C2C1=O (stereo not given) | GI50 | > 100 µM
N#CSc1c[nH]c2ccc(/C=C/C(=O)/C=C(O)/C=C/c3ccc4[nH]cc(SC#N)c4c3)cc12 | GI50 | 1.61 µM
CN1CCN(c2cc(F)c(NC3=C(Cl)C(=O)c4ncccc4C3=O)c(F)c2)CC1 | GI50 | 2.4 µM

---

Tested on: SK-MEL-2 melanoma
Test: NCI tumour cell line growth inhibition, 48 h; in the data active means GI50 below about 0.43 µM; inactive means the rest
Labels: active, inactive

molecule | measured on | category label
CN1CCN(c2cc(F)c(NC3=C(Cl)C(=O)c4ncccc4C3=O)c(F)c2)CC1 | SK-MEL-2 melanoma | inactive
C=CC(=O)N1CCN([C@@H](CC2CC2)c2ccc([C@H](C)Nc3ncc4c(n3)N(CC)C(=O)OC4)cc2)CC1 | SK-MEL-2 melanoma | inactive
COc1cc(-c2csc(NC(=O)Nc3ccc(Cl)cc3)n2)cc(OC)c1OC | SK-MEL-2 melanoma | inactive
Clc1cccc(-c2cc(-c3ccc4c(c3)OCCO4)[nH]n2)c1 | SK-MEL-2 melanoma | inactive
CN1CCN(c2ccc3nc(-c4[nH]ncc4Nc4ncnc5[nH]ccc45)[nH]c3c2)CC1 | SK-MEL-2 melanoma | active
Cc1cc(NC(=O)NCCCOc2ccc(N3C(N)=NC(N)=NC3(C)C)cc2Cl)ccc1S(=O)(=O)F | SK-MEL-2 melanoma | inactive
Cc1ccc(NC(=O)c2ccoc2)cc1-c1ccc(C(=O)NCC2CC2)cc1 | SK-MEL-2 melanoma | inactive
COc1ccc2c(c1[N+](=O)[O-])CC[C@@H]1[C@@H]2CC[C@]2(C)C(=O)CC[C@@H]12 | SK-MEL-2 melanoma | inactive
CCCCCCCCCCCC1=NC(C)(C)CN1C(C)C | SK-MEL-2 melanoma | inactive
COc1ccccc1C1C(C#N)=C(N)SC(N)=C1C#N | SK-MEL-2 melanoma | inactive
[O-]c1ccccc1C=NCCN=Cc1ccccc1[O-].[O]=[U+2]=[O] | SK-MEL-2 melanoma | inactive
Clc1ccc2c(NC3CCC(NC4CCCCC4)CC3)ccnc2c1 (stereo not drawn) | SK-MEL-2 melanoma | inactive
O=c1c2ccccc2c(=O)n2n1-c1cccc(c1)CSSCc1cccc-2c1 | SK-MEL-2 melanoma | inactive

---

Tested on: HCC-2998 colon
Assay: NCI tumour cell line growth inhibition, 48 h

compound | TGI
COc1cc(OC)c(-n2[nH]c(=O)n(C)c2=O)c(OC)c1 | > 100 µM
C/C(=C\CCC1=CC(=O)OC1)CCC1C2C(=O)CC(C)[C@@]3(C)CC[C@]1(C)[C@@]23C (some centres undefined) | > 10 µM
[Cu].c1ccc2c(c1)C1=NC2=NC2=NC(=NC3=NC(=NC4=NC(=N1)c1ccccc14)c1ccccc13)c1ccccc12 | > 100 µM
COc1cccc2c1C(=O)c1c(O)c3c(c(O)c1C2=O)C[C@@](O)(/C(C)=N/NC(=O)c1cccc([N+](=O)[O-])c1)C[C@@H]3OC1CC(N)C(O)C(C)O1 (some centres undefined) | 2.77 µM
CCOC(=O)N1CCC2(CC1)C[C@](Sc1ccccc1)(C(C)=O)[C@H](C)O2 | > 100 µM
C[C@]12C(=O)OC[C@H](c3ccccc3)N1C(=O)N(Cc1ccccc1)[C@@H]2CO | > 100 µM
O=[N+]([O-])C1=Cc2c(O)ccc(O)c2C2OC=CC12 (centres undefined) | > 57.8 µM
Cc1ccc(NC(=O)c2ccoc2)cc1-c1ccc(C(=O)NCC2CC2)cc1 | > 25 µM
Cc1c2ccccc2c(=O)n2c(-c3ccccn3)cccc12 | > 100 µM

---

Reported TGI values for a set of compounds
System: SK-MEL-2 melanoma
Test: NCI tumour cell line growth inhibition, 48 h

compound | measured on | TGI
O=c1[nH]c(=O)n(Cc2ccc(C34CC5CC(CC(C5)C3)C4)c(O)c2)cc1F | SK-MEL-2 melanoma | 39.4 µM
COc1cc2ncnc(Nc3cccc(Br)c3)c2cc1OC | SK-MEL-2 melanoma | 12.9 µM
O=C(CN1CCCCC1)c1ccc2[nH]c(=O)oc2c1 | SK-MEL-2 melanoma | > 100 µM
O=C(CSc1nc2ccccc2c(=O)n1-c1ccccc1)N=Nc1c(O)[nH]c2ccc(Br)cc12 | SK-MEL-2 melanoma | 47.1 µM
CCOC(=O)c1ccc(-c2onc(C)c2Br)[nH]1 | SK-MEL-2 melanoma | > 100 µM
COC(=O)C12CCCN1CCC2 | SK-MEL-2 melanoma | > 100 µM
CN(C)CCNc1c(O)c2c(c(O)c1Cl)C(=O)C=CC2=O | SK-MEL-2 melanoma | 3.95 µM
COC1C(OC(=O)/C=C/C=C/C=C/C=C/C(=O)O)CCC2(CO2)C1C1(C)OC1CC=C(C)C (stereo unspecified) | SK-MEL-2 melanoma | > 85.3 µM
C/C(=C1\C(=O)Nc2ccccc21)c1cccc(/C(C)=C2/C(=O)Nc3ccccc32)n1 | SK-MEL-2 melanoma | > 100 µM
O=c1c2ccccc2c(=O)n2n1-c1cccc(c1)CSSCc1cccc-2c1 | SK-MEL-2 melanoma | > 100 µM
c1ccc(C/C(=N\Nc2nc3ccccc3[nH]2)c2ccccn2)cc1 | SK-MEL-2 melanoma | 15.3 µM
COc1ccc(C(O)C(c2ccc(OCc3ccccc3)cc2)c2ccc(OCc3ccccc3)cc2)cc1 (stereo unspecified) | SK-MEL-2 melanoma | > 100 µM
CCO/C(O)=c1/s/c(=C2/SC(=S)N(c3ccc(C)cc3)C2=O)n(-c2ccccc2)c1=N | SK-MEL-2 melanoma | > 100 µM
COc1cc2c(c3nc4ccccc4nc13)-c1ccc(SC)c(=O)cc1[C@@H](NC(C)=O)CC2 | SK-MEL-2 melanoma | > 100 µM
C[C@]12CC[C@H]3[C@@H](CCC4=CC(=O)CC[C@@]43C)[C@]1(O)CC[C@]2(O)C(=O)CO | SK-MEL-2 melanoma | > 100 µM
COc1cc(O)c2c(=O)c3cccc(C)c3[nH]c2c1 | SK-MEL-2 melanoma | > 10 µM
CCOC(=O)c1sc2nc(=S)[nH]c(NC(N)=S)c2c1C | SK-MEL-2 melanoma | > 100 µM
CCOC(=O)c1ccc(N2C(=O)/C(=C/c3ccc(N(CCC#N)CCC#N)cc3)N=C2c2cc([N+](=O)[O-])ccc2Cl)cc1 | SK-MEL-2 melanoma | > 100 µM
N#Cc1cnc2ccc(NCc3cnc[nH]3)cc2c1Nc1ccc(F)c(Cl)c1 | SK-MEL-2 melanoma | > 100 µM
O=C1c2cccnc2S(=O)(=O)N1c1ccc(Br)cc1 | SK-MEL-2 melanoma | > 100 µM
CN(C(=O)Cc1cc(Cl)c(Cl)cc1NC(=O)CCCN)[C@H]1CCCC[C@@H]1N1CCCC1 | SK-MEL-2 melanoma | 40.5 µM

---

Reported TGI values for a set of compounds
Tested on: MDA-MB-231 breast
Assay: NCI tumour cell line growth inhibition, 48 h
reported metric: TGI

structure as smiles | result
COc1cc(O)c2c(=O)c3cccc(C)c3[nH]c2c1 | > 10 µM
Cc1cc(NC(=O)NCCCOc2ccc(N3C(N)=NC(N)=NC3(C)C)cc2Cl)ccc1S(=O)(=O)F | > 100 µM
CC1=C[C@H](C[C@]2(C)c3c(c4c(C)cccc4oc3=O)O[C@@H]2C)OC1=O | > 100 µM
C=CC(=O)N1CCN([C@@H](CC2CC2)c2ccc([C@H](C)Nc3ncc4c(n3)N(CC)C(=O)OC4)cc2)CC1 | 27.4 µM
COc1nc2ncc([C@@H](OC(C)=O)[C@@H](COC(C)=O)OC(C)=O)nc2c(=O)n1C | > 100 µM

---

Test system: HS 578T breast
Assay: NCI tumour cell line growth inhibition, 48 h
reported metric: TGI

compound | measured on | reported metric | result
C[N+](C)(N)Cc1nc(-c2ccc(Cl)cc2)no1 | HS 578T breast | TGI | > 100 µM
CC(=O)N1N=C(c2ccccc2)NC(=O)C1c1cc(C)c(O)c(C)c1 (configuration not stated) | HS 578T breast | TGI | > 100 µM
CC(C)OC(=O)Nc1c([N+](=O)[O-])cc(C(F)(F)F)cc1[N+](=O)[O-] | HS 578T breast | TGI | > 100 µM
CCN(CC)P(=O)(c1ccc2c(c1)OCCOCCOCCOCCO2)N(CC)CC | HS 578T breast | TGI | > 100 µM
CCN(CC)c1c(-c2c(OC(C)C)c(=O)c2=O)c(=O)n2ccsc2c1OC(C)=O | HS 578T breast | TGI | > 100 µM
COc1cccc2c1C(=O)c1c(O)c3c(c(O)c1C2=O)C[C@@](O)(C(=O)CO)C[C@@H]3OC1CC(N2CCOCC2)C(O)C(C)O1 (some centres not stated) | HS 578T breast | TGI | 0.228 µM
C=C(C)[C@@H]1CC[C@]2(C(=O)OC)CC[C@]3(C)[C@H](CC[C@@H]4[C@@](C)(CCc5nn[nH]n5)[C@H](C(=C)C)CC[C@]43C)[C@@H]12 | HS 578T breast | TGI | 53.8 µM
CN1CCN(c2ccc3nc(-c4[nH]ncc4Nc4ncnc5[nH]ccc45)[nH]c3c2)CC1 | HS 578T breast | TGI | 2.03 µM
COc1ccc(CC(C)NCC(O)c2ccc(O)c(NC=O)c2)cc1 (configuration not stated) | HS 578T breast | TGI | > 100 µM
O=c1[nH]c2c(C(F)(F)F)c(Cl)c(-c3ccccc3)nc2o1 | HS 578T breast | TGI | > 100 µM
CCCSc1ccc2[nH]c(N3C(=O)/C(=C/c4ccc(O)c(OC)c4)N=C3c3ccccc3)cc2c1 | HS 578T breast | TGI | 14.3 µM
CCCCOC(=O)Nc1ccc(S(=O)(=O)Nc2c(Cl)cccc2Cl)cc1 | HS 578T breast | TGI | > 100 µM
